Just for reference, patent US20160362487A1 is where these values come from.

# assayed.system: T1, cynomolgus monkey IL-33 expressed with a C-terminal hexahistidine tag (cynomolgus monkey)
# T1 chain: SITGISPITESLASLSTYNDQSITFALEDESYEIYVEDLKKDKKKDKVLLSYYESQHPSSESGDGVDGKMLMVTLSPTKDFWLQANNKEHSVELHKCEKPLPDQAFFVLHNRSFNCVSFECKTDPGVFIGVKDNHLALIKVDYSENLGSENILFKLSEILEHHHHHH
# assay.protocol: cell-based or functional assay
recorded.metric: IC50, inhibition of 5 pM MfIL-33-6His activation of HEK293/hST2/NFkB-luciferase cells (M)
Answers are plain numbers, in M.

H4H9671P (antibody, human IgG4, V domains shown, Human IgG4 Fc (H4H)) VH: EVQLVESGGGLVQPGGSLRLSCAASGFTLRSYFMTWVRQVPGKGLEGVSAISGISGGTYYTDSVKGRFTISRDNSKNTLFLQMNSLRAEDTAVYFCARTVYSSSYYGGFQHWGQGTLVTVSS VL: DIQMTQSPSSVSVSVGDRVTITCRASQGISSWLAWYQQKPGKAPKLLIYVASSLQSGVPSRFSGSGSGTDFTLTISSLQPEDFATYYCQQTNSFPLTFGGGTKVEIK	4.8e-09
H4H9676P (antibody, human IgG4, V domains shown, Human IgG4 Fc (H4H)) VH: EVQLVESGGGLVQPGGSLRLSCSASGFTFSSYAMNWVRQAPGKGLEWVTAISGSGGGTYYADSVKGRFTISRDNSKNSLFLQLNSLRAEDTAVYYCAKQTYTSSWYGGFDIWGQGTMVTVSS VL: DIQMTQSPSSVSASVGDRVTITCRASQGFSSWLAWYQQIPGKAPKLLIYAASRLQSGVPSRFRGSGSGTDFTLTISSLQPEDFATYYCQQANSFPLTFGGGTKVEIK	8.4e-09

Okay, next one:
Problem: Quick one: IC50, inhibition of 5 pM MfIL-33-6His activation of HEK293/hST2/NFkB-luciferase cells of H4H9640P (antibody, human IgG4, V domains shown, Human IgG4 Fc (H4H)) VH: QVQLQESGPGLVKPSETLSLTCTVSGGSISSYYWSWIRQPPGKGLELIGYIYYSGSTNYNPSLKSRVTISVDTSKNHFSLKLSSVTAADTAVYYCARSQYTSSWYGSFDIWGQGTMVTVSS VL: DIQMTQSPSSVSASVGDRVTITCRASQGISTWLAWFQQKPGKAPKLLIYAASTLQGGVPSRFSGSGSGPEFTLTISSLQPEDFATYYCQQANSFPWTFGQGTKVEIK ?
Solution: 1.4e-08
